Where these numbers come from: patent US9296723B2

systemName: NAMPT (Homo sapiens)
protocolNotes: Time-Resolved Fluorescence Resonance Energy Transfer (TR-FRET) Binding Assay of NAMPT
conditionLabel: 6.8 nM NAMPT, 200 nM probe, equilibrated 3 hours, no substrates
pIC50: −log10 of the molar value.
recordedEndpoint: pIC50

Sample records with pIC50:
[[record]]
compound = "CCCCC(=O)N1CC(Oc2ccc(NC(=O)N3CC(c4cccnc4)C3)cc2)C1"
readoutvalue = 7.73

[[record]]
compound = "Cn1cccc1C(=O)N1CCC(c2ccc(NC(=O)N3CC(c4cccnc4)C3)cc2)CC1"
readoutvalue = 8.37

[[record]]
compound = "CC(C)CN1CC(c2ccc(NC(=O)N3CC(c4cccnc4)C3)cc2)C1"
readoutvalue = 6.42

[[record]]
compound = "CC1CC1C(=O)N1CCC(Oc2ccc(NC(=O)N3CC(c4cccnc4)C3)cc2)CC1 (centres unmarked)"
readoutvalue = 7.05


P. O=C(Nc1ccc(O[C@@H]2CCN(C(=O)[C@H]3CCCO3)C2)cc1)N1CC(c2cccnc2)C1
Q. O=C(Nc1ccc(C2CCN(CC3CCOC3)CC2)cc1)N1CC(c2cccnc2)C1 (centres unmarked)
R. CC1CC1C(=O)N1CC(Oc2ccc(NC(=O)N3CC(c4cccnc4)C3)cc2)C1 (centres unmarked)
S. O=C(NCC1CCOC1)c1ccc(NC(=O)N2CC(c3cccnc3)C2)cc1 (centres unmarked)
Rank order required: pIC50, descending. // respond by listing labels in the order requested
R, P, S, Q

====

systemName: NAMPT (Homo sapiens)
protocolNotes: TR-FRET Binding Assay of NAMPT with PRPP
conditionLabel: 2 nM NAMPT, 2 nM probe, 200 µM PRPP and 2.5 mM ATP, equilibrated 16 hours
recordedEndpoint: IC50 (nM)

Sample records with IC50:
[[record]]
molecule = "O=C(Nc1ccc(OC2CN(C(=O)[C@@H]3CCCO3)C2)cc1)N1CC(c2cccnc2)C1"
recordedendpoint = "IC50"
readingunit = "nM"
readoutvalue = 0.243

[[record]]
molecule = "O=C(CN1CCOCC1)N1CC(Oc2ccc(NC(=O)N3CC(c4cccnc4)C3)cc2)C1"
recordedendpoint = "IC50"
readingunit = "nM"
readoutvalue = 0.763

[[record]]
molecule = "O=C(Nc1ccc(C2CCN(C(=O)c3ccsc3)C2)cc1)N1CC(c2cccnc2)C1 (centres unmarked)"
recordedendpoint = "IC50"
readingunit = "nM"
readoutvalue = 0.225


I. Cc1ccc(C(=O)N2CCC(c3ccc(NC(=O)N4CC(c5cccnc5)C4)cc3)CC2)s1
II. CC(C)CC(=O)N1CC(Oc2ccc(NC(=O)N3CC(c4cccnc4)C3)cc2)C1
Which value of IC50 is smaller, the one for I or the one for II ? State your choice using its label.
I

a. O=C(CCN1CCCCC1)N1CCC(c2ccc(NC(=O)N3CC(c4cccnc4)C3)cc2)C1 (centres unmarked)
b. CC(C)(C)OC(=O)N1CC(c2ccc(NC(=O)N3CC(c4cccnc4)C3)cc2)C1
Could you kindly indicate whether a or b has the higher IC50 value? State your choice using its label.
b

====

systemName: NAMPT (Homo sapiens, UniProt P43490)
Sequence (P43490 whole entry): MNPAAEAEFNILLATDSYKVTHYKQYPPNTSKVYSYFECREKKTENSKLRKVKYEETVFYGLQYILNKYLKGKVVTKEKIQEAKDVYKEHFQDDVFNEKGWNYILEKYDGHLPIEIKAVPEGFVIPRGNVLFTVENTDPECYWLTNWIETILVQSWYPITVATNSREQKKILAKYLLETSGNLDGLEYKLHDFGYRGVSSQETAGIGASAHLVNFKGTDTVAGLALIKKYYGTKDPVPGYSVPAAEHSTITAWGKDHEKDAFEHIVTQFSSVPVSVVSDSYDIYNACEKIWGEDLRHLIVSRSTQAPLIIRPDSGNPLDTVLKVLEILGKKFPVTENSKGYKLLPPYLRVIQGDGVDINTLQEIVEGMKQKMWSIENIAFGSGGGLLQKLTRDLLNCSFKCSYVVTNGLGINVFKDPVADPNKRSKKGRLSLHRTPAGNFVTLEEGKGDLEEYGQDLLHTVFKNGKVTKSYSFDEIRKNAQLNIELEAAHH
protocolNotes: TR-FRET Binding Assay of NAMPT with PRPP
conditionLabel: 2 nM NAMPT, 2 nM probe, 200 µM PRPP and 2.5 mM ATP, equilibrated 16 hours
Description: Time-Resolved Fluorescence Resonance Energy Transfer (TR-FRET) Binding Assay of NAMPT with PRPP Compound handling and data processing were identical to the assay in the absence of substrates (above). Final concentrations were 1× assay buffer, 2% DMSO, 2 nM NAMPT, 2 nM probe, 1 nM Tb-anti-His antibody (Invitrogen #PV5895), 200 µM PRPP and 2.5 mM ATP. Reactions were equilibrated for 16 hours prior to measurement to allow for potential enzymatic modification of test compounds.
pIC50: −log10 of the molar value.
recordedEndpoint: pIC50

Sample records with pIC50:
[[record]]
compound = "O=C(CC1CCOCC1)N1CCC(Oc2ccc(NC(=O)N3CCN(c4cccnc4)CC3)cc2)CC1"
readoutvalue = 9.24

[[record]]
compound = "O=C(Nc1ccc(O[C@@H]2CCN(C(=O)c3cccs3)C2)cc1)N1CC(c2cccnc2)C1"
readoutvalue = 9.44


1. CC(=O)N1CC(Oc2ccc(NC(=O)N3CC(c4cccnc4)C3)cc2)C1
2. CCCN1CCC(c2ccc(NC(=O)N3CC(c4cccnc4)C3)cc2)CC1
3. CC(C)(C)OC(=O)N1CCC(CCCCNC(=O)N2CC(c3cccnc3)C2)CC1
Sort ascending by pIC50. // respond by listing labels in the order requested
3, 1, 2

a. O=C(Nc1ccc(C2CN(C(=O)c3cccs3)C2)cc1)N1CC(c2cccnc2)C1
b. Cc1ccsc1C(=O)N1CCC(c2ccc(NC(=O)N3CC(c4cccnc4)C3)cc2)CC1
Could you kindly indicate whether a or b has the higher pIC50 value? State your choice using its label.
a
(a: 9.74, b: 9.46)

P. O=C(Nc1ccc(C2CN(C(=O)c3ccoc3)C2)cc1)N1CC(c2cccnc2)C1
Q. CCC(C)CC(=O)N1CCC(Oc2ccc(NC(=O)N3CC(c4cccnc4)C3)cc2)CC1 (centres unmarked)
Which value of pIC50 is smaller, the one for P or the one for Q ? State your choice using its label.
Q
(Q: 9.35, P: 9.59)

I. O=C(NCC1CCOC1)c1ccc(NC(=O)N2CC(c3cccnc3)C2)cc1 (centres unmarked)
II. O=C(CC(F)(F)F)N1CC(c2ccc(NC(=O)N3CC(c4cccnc4)C3)cc2)C1
Which value of pIC50 is smaller, the one for I or the one for II ? State your choice using its label.
II

a. O=C(Nc1ccc(C2CCN(CCC3CC3)CC2)cc1)N1CC(c2cccnc2)C1
b. COCC(=O)N1CC(c2ccc(NC(=O)N3CC(c4cccnc4)C3)cc2)C1
Which value of pIC50 is smaller, the one for a or the one for b ? State your choice using its label.
b
(b: 9.35, a: 9.65)

====

systemName: NAMPT (Homo sapiens, UniProt P43490)
protocolNotes: TR-FRET Binding Assay of NAMPT with PRPP
conditionLabel: 2 nM NAMPT, 2 nM probe, 200 µM PRPP and 2.5 mM ATP, equilibrated 16 hours
pIC50: −log10 of the molar value.
recordedEndpoint: pIC50

Sample records with pIC50:
[[record]]
compound = "CCC(C)CC(=O)N1CC(c2ccc(NC(=O)N3CC(c4cccnc4)C3)cc2)C1 (stereo not shown) [Example 202]"
readoutvalue = 9.49

[[record]]
compound = "CCCCC(=O)N1CCC(c2ccc(NC(=O)N3CC(c4cccnc4)C3)cc2)C1 (stereo not shown) [Example 258]"
readoutvalue = 9.44


P. CCOCC(=O)N1CC[C@@H](Oc2ccc(NC(=O)N3CC(c4cccnc4)C3)cc2)C1 [Example 328]
Q. CC[C@H](C)C(=O)N1CC[C@H](Oc2ccc(NC(=O)N3CC(c4cccnc4)C3)cc2)C1 [Example 98]
R. O=C(CCN1CCOCC1)N1CCC(Oc2ccc(NC(=O)N3CC(c4cccnc4)C3)cc2)CC1 [Example 37]
Rank order required: pIC50, descending. // respond by listing labels in the order requested
R, P, Q
(R: 9.76, P: 9.46, Q: 8.92)

a. O=C(Nc1ccc(O[C@@H]2CCN(C(=O)C3CCCCC3)C2)cc1)N1CC(c2cccnc2)C1 [Example 332]
b. O=C(CN1CCOCC1)N1CCC(c2ccc(NC(=O)N3CC(c4cccnc4)C3)cc2)CC1 [Example 187]
Which value of pIC50 is smaller, the one for a or the one for b ? State your choice using its label.
a
(a: 9.32, b: 9.53)

====

systemName: NAMPT (Homo sapiens)
protocolNotes: Time-Resolved Fluorescence Resonance Energy Transfer (TR-FRET) Binding Assay of NAMPT
conditionLabel: 6.8 nM NAMPT, 200 nM probe, equilibrated 3 hours, no substrates
pIC50: −log10 of the molar value.
recordedEndpoint: pIC50

Sample records with pIC50:
[[record]]
compound = "CC(=O)N[C@@H](CC(C)C)C(=O)N1CC(c2ccc(NC(=O)N3CC(c4cccnc4)C3)cc2)C1"
readoutvalue = 7.62

[[record]]
compound = "Cn1cccc1C(=O)N1CC[C@@H](Oc2ccc(NC(=O)N3CC(c4cccnc4)C3)cc2)C1"
readoutvalue = 7.73


I. O=C(Nc1ccc(C2CCN(C(=O)c3cccs3)CC2)cc1)N1CC(c2cccnc2)C1
II. COCCOCC(=O)N1CCC(c2ccc(NC(=O)N3CC(c4cccnc4)C3)cc2)C1 (centres unmarked)
III. O=C(Nc1ccc(C2CCN(C(=O)c3ccccc3)C2)cc1)N1CC(c2cccnc2)C1 (centres unmarked)
IV. CC(C)(C)C(=O)N1CCC(c2ccc(NC(=O)N3CC(c4cccnc4)C3)cc2)CC1
Sort ascending by pIC50. // respond by listing labels in the order requested
II, III, IV, I

====

systemName: NAMPT (Homo sapiens, UniProt P43490)
protocolNotes: TR-FRET Binding Assay of NAMPT with PRPP
conditionLabel: 2 nM NAMPT, 2 nM probe, 200 µM PRPP and 2.5 mM ATP, equilibrated 16 hours
recordedEndpoint: IC50 (nM)

[[record]]
compound = "O=C(Nc1ccc(OC2CCN(C(=O)C3CC3)CC2)cc1)N1CC(c2cccnc2)C1 [Example 47]"
readingunit = "nM"
readoutvalue = 0.268

[[record]]
compound = "O=C(Nc1ccc(C2CN(CC3CC3)C2)cc1)N1CC(c2cccnc2)C1 [Example 248]"
readingunit = "nM"
readoutvalue = 0.228


A. O=C(Nc1ccc(C2=CCN(C(=O)[C@@H]3CCCO3)CC2)cc1)N1CC(c2cccnc2)C1 [Example 11]
B. O=C(CC1CCCCC1)N1CC(c2ccc(NC(=O)N3CC(c4cccnc4)C3)cc2)C1 [Example 212]
Could you kindly indicate whether A or B has the higher IC50 value? State your choice using its label.
B
(B: 0.464 nM, A: 0.32 nM)
